# Protocol: qHTS Assay for Identification of Small Molecule Agonists for Hypoxia Response Element Signaling Pathway (AID 914); also: % of control where 0% means no effect
# Details: ME-180 (cervical carcinoma) HRE-bla reporter, beta-lactamase ratio, CoCl2, 17 h; hits give high values
Results filed as inconclusive are left out.
Reported Property: activation (%)
Unit % implied. Number only.

As a guide, the following entries are already answered.
>>> value_reported("COc1cccc(/C(O)=C2/C(=O)C(=O)N(CCCN(C)C)C2c2cccc(Cl)c2)c1 (stereo not given)")
9.88
>>> value_reported("COC(=O)/C(C#N)=C1/SC=C(C)N1c1ccccc1")
-6.52
>>> value_reported("CCOc1ccc(C2C(C#N)=C(N)SC(N)=C2C#N)cc1OC")
-15.3
>>> value_reported("COC(=O)C(NC(C)=O)(Nc1nc2c(s1)CCCC2)C(F)(F)F (stereo not given)")
-17
>>> value_reported("Cc1nn(-c2ccccc2)c2c1C(c1ccc(F)cc1F)C(C#N)=C(N)O2 (stereo not given)")
-12.7
>>> value_reported("COc1ccc2c(C)nc(Nc3nc(C)cc(C)n3)nc2c1")
-6.59
>>> value_reported("CC(C)OC(=O)C(CC(=O)O)NCc1ccccc1 (stereo not given)")
19.8
>>> value_reported("Cc1cc(Cl)ccc1OCC(=O)OC(C)C(=O)N(C)C (stereo not given)")
-0.0413
>>> value_reported("CCOc1ccc(/C(O)=C2/C(=O)C(=O)N(CCN(CC)CC)C2c2ccco2)cc1 (stereo not given)")
-14.8
>>> value_reported("CN1c2ccccc2-c2nc3ccccc3n2C1c1ccco1 (stereo not given)")
-8.71

Problem: Record request: activation value, item COc1ccc(C2CC(C(F)(F)F)n3ncc(C(=O)Nc4cccc(O)c4)c3N2)cc1OC (stereo not given)
Result: -22.3

Problem: Please give the result for O=C(C1CCCCC1)N1CCCn2c1nc1ccccc12 too.
Result: 6.44

* * *

# Test system: JCK
# Protocol: qHTS profiling for inhibitors of Plasmodium falciparum proliferation (AID 504749);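 also: 0% = DMSO vehicle and full inhibition = artemisinin control; nearly all actives have a fitted effect of over 60% in size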
# Details: P. falciparum in erythrocytes, SYBR Green DNA, 72 h; series mostly up to 28.7 µM
Inconclusive results are not listed. The source made the active and inactive calls. Calls follow the shape of the dose curve; as a rule, active = well fitted inhibition curve with a large enough effect; inconclusive = small, poorly fitted or top-dose-only effect; inactive = flat fitted curve, though single readings scatter.
API: response.call in label 1 = active, label 0 = inactive

Example results:
>>> assigned_category("C=C1CC2C3C=C(C)C4=CC(=O)CCC4(C)C3CCC2(C)[C@@]1(OC(C)=O)C(C)=O (stereo partly specified)")
"label 0"
>>> assigned_category("COc1ccc(C(=O)/C(Br)=C/C(=O)O)cc1")
"label 0"
>>> assigned_category("C[C@@](Cc1ccccc1)(NC(=O)CN)c1ccccc1")
"label 0"

Problem: Per the records of this test, what outcome belongs to CC1(C)SC2[C@@H](N=CN3CCCCCC3)C(=O)N2[C@H]1C(=O)O (stereo partly specified) ?
Result: label 0

Problem: Please answer likewise for Cc1ccc(S(=O)(=O)NC(=O)NC(C)Cc2ccccc2)cc1 (stereo unspecified)
Result: label 0

Problem: Okay, and CCN(CC)CCOCCOC(=O)C(CC)(CC)c1ccccc1 (tested in a mixture with another compound) ?
Result: label 0

Problem: Please do the same for Cn1cc(C(=O)[C@@H]2CCc3[nH]cnc3C2)c2ccccc21 as well.
Result: label 0

Problem: Also need CC(=O)NC[C@@H]1CN(c2ccc(N3CCOCC3)c(F)c2)C(=O)O1 , thanks.
Result: label 0

Problem: Try this molecule too: CC(O)C1CCC2C3CCC4CC(O)CCC4(C)C3CCC12C (stereo unspecified)
Result: label 0

Problem: Another molecule to look at: C/C1=C2/[N-]C(C(CC(N)=O)[C@@]2(C)CCC(=O)NCC(C)OP(=O)([O-])O[C@H]2[C@@H](O)[C@@H](n3cnc4cc(C)c(C)cc43)O[C@@H]2CO)[C@]2(C)N=C(/C(C)=C3N=C(/C=C4N=C1C(CCC(N)=O)C\4(C)C)[C@@H](CCC(N)=O)[C@]\3(C)CC(N)=O)[C@@H](CCC(N)=O)[C@]2(C)CC(N)=O.CC(=O)O.[Co] (stereo partly specified)
Result: label 0

Problem: What do you have for CC1CCC(O)C/C1=C\C=C1/CCCC2(C)C1CCC2C(C)/C=C/C(C)C(C)C (stereo unspecified) ?
Result: label 0

// data source = PubChem BioAssay (NCATS)
